Item-by-item account of ADCC cytotoxic activity (51Cr release) on TT
# TGT: T1, CAPRIN-1 protein expressed on the membrane surface of human cancer cells (human, UniProt Q14444 2-709)
# T1 sequence (looked up): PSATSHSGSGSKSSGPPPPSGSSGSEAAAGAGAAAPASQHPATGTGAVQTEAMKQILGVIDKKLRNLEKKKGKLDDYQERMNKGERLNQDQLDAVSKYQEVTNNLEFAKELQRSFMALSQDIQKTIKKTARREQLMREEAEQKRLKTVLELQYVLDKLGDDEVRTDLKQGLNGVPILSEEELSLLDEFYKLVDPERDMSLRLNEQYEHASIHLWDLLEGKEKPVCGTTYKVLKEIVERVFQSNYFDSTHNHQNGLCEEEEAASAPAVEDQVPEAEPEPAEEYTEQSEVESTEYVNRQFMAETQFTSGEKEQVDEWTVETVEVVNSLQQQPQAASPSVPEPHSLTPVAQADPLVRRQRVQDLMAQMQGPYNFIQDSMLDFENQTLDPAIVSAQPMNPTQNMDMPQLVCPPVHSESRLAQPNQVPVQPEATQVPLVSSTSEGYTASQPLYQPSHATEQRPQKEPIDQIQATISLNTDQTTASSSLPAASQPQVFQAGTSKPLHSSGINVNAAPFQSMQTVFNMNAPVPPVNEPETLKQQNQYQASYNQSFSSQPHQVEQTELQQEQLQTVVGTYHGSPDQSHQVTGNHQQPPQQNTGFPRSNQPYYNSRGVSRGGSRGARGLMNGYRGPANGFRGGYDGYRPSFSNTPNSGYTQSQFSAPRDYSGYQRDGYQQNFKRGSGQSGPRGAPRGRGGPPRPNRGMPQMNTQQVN
# MEASUREMENT DESCRIPTION: cell-based or functional assay
REPORTED METRIC: ADCC cytotoxic activity (51Cr release) on TT

BINDER: humanized antibody #2 (antibody, V domains shown) VH: EVQLVESGGGLVQPGGSLRLSCAASGFSLSSHSLGWVRQAPGKGLEWIGDIRSGGSAYYANWAKGRFTISRDNSKNTLYLQMNSLRAEDTAVYYCTRTNGPSDLTNRLDLWGQGTLVTVSS VL: EIVLTQSPSSLSASVGDRVTINCQASQSLYNNENLAWFQQKPGKVPKRLIYGASTLASGVSSRFSGSGSGTEFTLTISNLQPEDFATYYCLGEFSCGSADCFAFGGGTKVEIK
READOUT VALUE: ≥ 35%

BINDER: humanized antibody #1 (antibody, V domains shown) VH: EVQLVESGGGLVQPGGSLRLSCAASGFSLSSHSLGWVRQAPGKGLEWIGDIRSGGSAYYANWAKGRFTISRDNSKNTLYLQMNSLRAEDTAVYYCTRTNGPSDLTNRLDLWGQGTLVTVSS VL: AIQMTQSPSSLSASVGDRVTINCQASQSLYNNENLAWFQQKPGKAPKRLIYGASTLASGVSSRFSGSGSGTDFTLTISSLQPEDFAIYYCLGEFSCGSADCFAFGGGTKVEIK
READOUT VALUE: ≥ 30%

BINDER: humanized antibody #7 (antibody, V domains shown) VH: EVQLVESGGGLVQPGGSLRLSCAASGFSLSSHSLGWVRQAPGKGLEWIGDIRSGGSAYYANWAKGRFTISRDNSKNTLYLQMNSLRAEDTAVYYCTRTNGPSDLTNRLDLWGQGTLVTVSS VL: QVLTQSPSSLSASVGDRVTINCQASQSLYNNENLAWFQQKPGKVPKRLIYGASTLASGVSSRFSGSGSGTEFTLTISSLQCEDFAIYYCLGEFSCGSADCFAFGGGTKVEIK
READOUT VALUE: ≥ 42%

BINDER: human-rabbit chimeric anti-CAPRIN-1 antibody (antibody, V domains shown) VH: QSLEESGGRLVTPGTPLTLTCTASGFSLSSHSLGWVRQAPGKGLEWIGDIRSGGSAYYANWAKGRFTISRTSTTVALKMTSLTTEDTATYFCTRTNGPSDLTNRLDLWGQGTLVTVSS VL: QVLTQTPSSVSAAVGGTVTINCQASQSLYNNENLAWFQQKPGQPPKRLIYGASTLASGVSSRFKGSGSGTQFTLTIGDVQCDDAAIYYCLGEFSCGSADCFAFGGGTEVVVK
READOUT VALUE: ≥ 30%

BINDER: humanized antibody #8 (antibody, V domains shown) VH: QSLVESGGGLVQPGGSLRLSCAASGFSLSSHSLGWVRQAPGKGLEWIGDIRSGGSAYYANWAKGRFTISRTSSKNTVYLQMNSLRAEDTAVYFCTRTNGPSDLTNRLDLWGQGTLVTVSS VL: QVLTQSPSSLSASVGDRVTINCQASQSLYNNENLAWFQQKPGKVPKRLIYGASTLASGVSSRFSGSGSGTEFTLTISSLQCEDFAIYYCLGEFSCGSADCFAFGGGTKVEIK
READOUT VALUE: ≥ 30%
